Starred links: 1 amine or outer side, 2 acyl side, 3 side chain; linkers in the order of their positions; H or OH if unused. Positions of bridges follow the written chain, without caps; N, C: chain ends. Non-standard residues stand in square brackets, D forms with d. Residues, ends and D or L forms follow the SMILES beside them. NMehTyr = CN[C@@H](CCc1ccc(O)cc1)C(=O)O; hTyr = N[C@@H](CCc1ccc(O)cc1)C(=O)O; NMeA = CN[C@@H](C)C(=O)O; CO = O=C([*:1])[*:2]
# IC50 measurements, system: Carboxypeptidase A1 (Homo sapiens)
Report only the number, with the unit nM understood.

Would you please look over these solved cases?
CC[C@H](C)[C@@H]1NC(=O)[C@H](NC(=O)N[C@@H](CCCNC(=N)N)C(=O)O)CCCCNC(=O)[C@H]([C@@H](C)CC)NC(=O)[C@H](CCc2ccc(O)cc2)N(C)C(=O)[C@H](CCc2ccc(O)cc2)NC1=O [ANABAENOPEPTIN H] ({Arg-CO}-[dK]I[hTyr][NMehTyr]I; lactam 1-C) ... 3680
CC[C@H](C)[C@H](NC(=O)N[C@@H]1CCCCNC(=O)[C@H](CC(C)C)NC(=O)[C@H](C)N(C)C(=O)[C@H](CCc2ccc(O)cc2)NC(=O)[C@H](C(C)C)NC1=O)C(=O)O [ANABAENOPEPTIN I] ({Ile-CO}-[dK]V[hTyr][NMeA]L; lactam 1-C) ... 6.84

### Prompt Bench note: what IC50 did CC[C@H](C)[C@H](NC(=O)N[C@@H]1CCCCNC(=O)[C@H](Cc2ccccc2)NC(=O)[C@H](C)N(C)C(=O)[C@H](CCc2ccc(O)cc2)NC(=O)[C@H](C(C)C)NC1=O)C(=O)O [ANABAENOPEPTIN J] ({Ile-CO}-[dK]V[hTyr][NMeA]F; lactam 1-C) show?
### Response 9.57

---

- MEASUREMENT_TARGET: Carboxypeptidase A1 (Homo sapiens, UniProt P15085)
- Sequence (P15085 whole entry): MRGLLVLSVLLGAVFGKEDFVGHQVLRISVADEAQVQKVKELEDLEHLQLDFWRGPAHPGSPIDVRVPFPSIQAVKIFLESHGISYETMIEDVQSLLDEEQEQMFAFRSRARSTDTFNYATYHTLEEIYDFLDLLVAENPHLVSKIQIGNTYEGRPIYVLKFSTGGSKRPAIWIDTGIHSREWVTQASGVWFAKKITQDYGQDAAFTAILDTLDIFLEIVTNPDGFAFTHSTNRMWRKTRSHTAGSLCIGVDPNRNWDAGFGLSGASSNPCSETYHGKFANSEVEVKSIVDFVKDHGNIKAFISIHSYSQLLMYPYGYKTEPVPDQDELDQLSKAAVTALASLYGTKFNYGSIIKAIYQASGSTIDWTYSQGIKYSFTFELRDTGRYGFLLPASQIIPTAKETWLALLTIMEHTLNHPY
Starred links: 1 amine or outer side, 2 acyl side, 3 side chain; linkers in the order of their positions; H or OH if unused. Positions of bridges follow the written chain, without caps; N, C: chain ends. Non-standard residues stand in square brackets, D forms with d. Residues, ends and D or L forms follow the SMILES beside them. NMehTyr = CN[C@@H](CCc1ccc(O)cc1)C(=O)O; hTyr = N[C@@H](CCc1ccc(O)cc1)C(=O)O; CO = O=C([*:1])[*:2]
Items are presented alongside their recorded pIC50.
Just the number, please; pIC50 means minus log10 of the concentration in mol/L.

CC[C@H](C)[C@@H]1NC(=O)[C@H](NC(=O)N[C@@H](Cc2ccc(O)cc2)C(=O)O)CCCCNC(=O)[C@H]([C@@H](C)CC)NC(=O)[C@H](CCc2ccc(O)cc2)N(C)C(=O)[C@H](CCc2ccc(O)cc2)NC1=O [ANABAENOPEPTIN G] ({Tyr-CO}-[dK]I[hTyr][NMehTyr]I; lactam 1-C) ... 8.12

Next up:
### Prompt Name the recorded pIC50 for CC[C@H](C)[C@H](NC(=O)N[C@@H]1CCCCNC(=O)[C@H]([C@@H](C)CC)NC(=O)[C@H](CCc2ccc(O)cc2)N(C)C(=O)[C@H](CCc2ccc(O)cc2)NC(=O)[C@H](C(C)C)NC1=O)C(=O)O [ANABAENOPEPTIN T] ({Ile-CO}-[dK]V[hTyr][NMehTyr]I; lactam 1-C) .
### Response 7.60
